assay: Particle size and polydispersity index of nanoparticle compositions (Zetasizer Nano ZS); type: physicochemical; details: Table 1c; nanoparticle compositions
Examples of molecules with documented Size (nm) follow.

- MOLECULE: "CCCCCCCCCN(CCCCCCCCC)CCN(CCCCCCCCC)CC(=O)N1CCC(CCN(CCCCCCCCC)CC(C)COC(=O)CCCCC)CC1 (stereo not drawn)"
  Size (nm): 83.1
- MOLECULE: "CCCCCCCCCCCCCCN(CCCCCCCC(=O)OCCCCC)CCC1CCN(C(=O)CN(CCCCCCCCC)CCN(CCCCCCCCC)CCCCCCCCC)CC1"
  Size (nm): 75.6
- MOLECULE: "CCCCCCCCCN(CCCCCCCCC)CCN(CCCCCCCCC)CC(=O)N1CCN(C(=O)CN(CCCCCCCCC)CCCCCOC(=O)OC)CC1"
  Size (nm): 75.0
- MOLECULE: "CCCCCCCCCCCCCCN(CCCCCC(=O)OCCCCCCC)CCC1CCCN(C(=O)CN(CCCCCCCCC)CCN(CCCCCCCCC)CCCCCCCCC)C1 (stereo not drawn)"
  Size (nm): 75.7
- MOLECULE: "CCCCCCCCCN(CCCCCCCCC)CCN(CCCCCCCCC)CC(=O)N1CCN(C(=O)CCCC(=O)OCCCCCCC)CC1"
  Size (nm): 83.3
- MOLECULE: "CCCCCC/C=C\\COC(=O)CCCN(CCCCCCCCCCCCCC)CC(=O)N1CCN(C(=O)CN(CCCCCCCCC)CCN(CCCCCCCCC)CCCCCCCCC)CC1"
  Size (nm): 82.3

====

test: Lipid purity change after storage in EtOH for 96 h at 25 or 37 °C; format: physicochemical; conditions: 37° C.
Examples of compounds with documented Lipid % change purity in EtOH, 37° C., 96 h follow.
REPORTED_ENDPOINT: Lipid % change purity in EtOH, 37° C., 96 h (%)

- COMPOUND: "CCCCCCCCCN(CCCCCCCCC)CCN(CCCCCCCCC)CC(=O)OC1CCC(OC(=O)CN(CCCCCCCCC)CCCCCCCCC)CC1 (stereo not drawn) [Compound 115]"
  UNITS: "%"
  VALUE_REPORTED: 59.5
- COMPOUND: "CCCCCCCCCN(CCCCCCCCC)CCN(CCCCCCCCC)CC(=O)N1CCC(CCN(CCCCCCCCC)CC(C)COC(=O)CCCCC)CC1 (stereo not drawn) [Compound 132]"
  UNITS: "%"
  VALUE_REPORTED: 5.54
- COMPOUND: "CCCCCCCCCCCCCCN(CCCCCCCC(=O)OCCCCC)CC(=O)N1CCN(C(=O)CN(CCCCCCCCC)CCN(CCCCCCCCC)CCCCCCCCC)CC1 [Compound 90]"
  UNITS: "%"
  VALUE_REPORTED: 9.6
- COMPOUND: "CCCCCCCCCN(CCCCCCCCC)CCN(CCCCCCCCC)CC(=O)N1CCN(C(=O)CN(CCCCCCCCC)CC(C)COC(=O)CCCCC)CC1 (stereo not drawn) [Compound 130]"
  UNITS: "%"
  VALUE_REPORTED: 4.46
- COMPOUND: "CCCCCCCCCCCCCCN(CCCCCC(=O)OCCCCCCC)CCC1CCCN(C(=O)CN(CCCCCCCCC)CCN(CCCCCCCCC)CCCCCCCCC)C1 (stereo not drawn) [Compound 121]"
  UNITS: "%"
  VALUE_REPORTED: 1.5
- COMPOUND: "CCCCCCCCCN(CCCCCCCCC)CCOC(=O)C1CCC(C(=O)OCCN(CCCCCCCCC)CCN(CCCCCCCCC)CCCCCCCCC)CC1 (stereo not drawn) [Compound 128]"
  UNITS: "%"
  VALUE_REPORTED: 12.2

====

experiment: Encapsulation efficiency of RNA (QUANT-IT RIBOGREEN RNA assay); assay type: physicochemical; conditions: Table 1f, Formulated with lipid:Chol:DOPE:PEG 1 40:38.5:20:1.5
Examples of compounds with documented EE (%) follow.
REPORTED_ENDPOINT: EE (%)

- COMPOUND: "CCCCCCCCCOC(=O)CCCCCCCN(CCCCCCCC(=O)OC(CCCCCCCC)CCCCCCCC)CCCCC(=O)N1CCN(C(=O)CCCCN(CCCCCCCC(=O)OCCCCCCCCC)CCCCCCCC(=O)OC(CCCCCCCC)CCCCCCCC)CC1 [Compound 184]"
  VALUE_REPORTED: "99.1%"
- COMPOUND: "CCCCCCCCCOC(=O)CCCCCCCN(CCCCCCCC(=O)OC(CCCCCCCC)CCCCCCCC)CCCCC(=O)N(CC)CCN(CC)C(=O)CCCCN(CCCCCCCC(=O)OCCCCCCCCC)CCCCCCCC(=O)OC(CCCCCCCC)CCCCCCCC [Compound 181]"
  VALUE_REPORTED: "97.7%"
- COMPOUND: "CCCCCCCCCOC(=O)CCCCCCCN(CCCCCCCC(=O)OC(CCCCCCCC)CCCCCCCC)CCCCC(=O)OC(C)C(C)OC(=O)CCCCN(CCCCCCCC(=O)OCCCCCCCCC)CCCCCCCC(=O)OC(CCCCCCCC)CCCCCCCC (centres unmarked) [Compound 186]"
  VALUE_REPORTED: "98.2%"
- COMPOUND: "CCCCCCCCCN(CCCCCCCCC)CCN(CCCCCCCCC)CC(=O)OC(C)CC(C)OC(=O)CN(CCCCCCCCC)CCCCCCCCC (centres unmarked) [Compound 189]"
  VALUE_REPORTED: "98.3%"
- COMPOUND: "CCCCCCCCCOC(=O)CCCCCCCN(CCCCCCCC(=O)OC(CCCCCCCC)CCCCCCCC)CCCCC(=O)OC(C)CC(C)OC(=O)CCCCN(CCCCCCCC(=O)OCCCCCCCCC)CCCCCCCC(=O)OC(CCCCCCCC)CCCCCCCC (centres unmarked) [Compound 187]"
  VALUE_REPORTED: "98.5%"

====

assay: pKa of nanoparticle compositions; assay type: physicochemical; conditions: Table 1b
Examples of compounds with documented pKa follow.
REPORTED_ENDPOINT: pKa

- COMPOUND: "CCCCCCCCCN(CCCCC(=O)OCCCC)CCC1CCN(C(=O)CN(CCCCCCCCC)CCN(CCCCCCCCC)CCCCCCCCC)CC1 [Compound 60]"
  REPORTED_ENDPOINT: "pKa"
  VALUE_REPORTED: 6.66
- COMPOUND: "CCCCCCCCCN(CCCCCCCCC)CCN(CCCCCCCCC)CC(=O)N1CCN(C(=O)CN(CCCCCCCCC)CCCCC(=O)OCCCC)CC1 [Compound 55]"
  REPORTED_ENDPOINT: "pKa"
  VALUE_REPORTED: 6.96
- COMPOUND: "CCCCCCCCCN(CCCC(=O)OCCCCC)CCN(CCCCCCCCC)CC(=O)N1CCN(C(=O)CN(CCCCCCCCC)CCCC(=O)OCCCCC)CC1 [Compound 71]"
  REPORTED_ENDPOINT: "pKa"
  VALUE_REPORTED: 6.44

====

assay: Lipid clearance: % dose remaining in liver of CD-1 mice; assay type: in vivo; conditions: intravenous, 0.5 mg/kg, CD-1 mouse, Table 8a
Examples of compounds with documented % Dose Remaining 24 hr follow.

- COMPOUND: "CCCCCCCCCN(CCCC(=O)OCCCCC)CCC1CCN(C(=O)CN(CCCCCCCCC)CCN(CCCCCCCCC)CCCCCCCCC)C1 (stereo not drawn)"
  % Dose Remaining 24 hr: "19.27%"
- COMPOUND: "CCCCCCCCCN(CCCCCCCCC)CCN(CCCCCCCCC)CC(=O)N1CCN(C(=O)CN(CCCCCCCCC)CCCCCCCCC)CC1"
  % Dose Remaining 24 hr: "60.36%"
- COMPOUND: "CCCCCCCCCN(CCCCCCCCC)CCN(CCCCCCCCC)CC(=O)N1CCC(CCN(CCCCCCCCC)CC(C)COC(=O)CCCCC)CC1 (stereo not drawn)"
  % Dose Remaining 24 hr: "0.81%"

====

test: Particle size and polydispersity index of nanoparticle compositions (Zetasizer Nano ZS); assay type: physicochemical; details: Table 1f, Formulated with lipid:Chol:DOPE:PEG 1 40:38.5:20:1.5
REPORTED_ENDPOINT: Size (nm)

- COMPOUND: "CCCCCCCCCOC(=O)CCCCCCCN(CCCCCCCC(=O)OC(CCCCCCCC)CCCCCCCC)CCCCC(=O)N1CCN(C(=O)CCCCN(CCCCCCCC(=O)OCCCCCCCCC)CCCCCCCC(=O)OC(CCCCCCCC)CCCCCCCC)CC1"
  UNITS: "nm"
  VALUE_REPORTED: 107.6
- COMPOUND: "CCCCCCCCCOC(=O)CCCCCCCN(CCCCCCCC(=O)OC(CCCCCCCC)CCCCCCCC)CCCCC(=O)N(C)CCN(C)C(=O)CCCCN(CCCCCCCC(=O)OCCCCCCCCC)CCCCCCCC(=O)OC(CCCCCCCC)CCCCCCCC"
  UNITS: "nm"
  VALUE_REPORTED: 128.9
- COMPOUND: "CCCCCCCCCOC(=O)CCCCCCCN(CCCCCCCC(=O)OC(CCCCCCCC)CCCCCCCC)CCCCC(=O)OCCOC(=O)CCCCN(CCCCCCCC(=O)OCCCCCCCCC)CCCCCCCC(=O)OC(CCCCCCCC)CCCCCCCC"
  UNITS: "nm"
  VALUE_REPORTED: 98.4
- COMPOUND: "CCCCCCCCCOC(=O)CCCCCCCN(CCCCCCCC(=O)OC(CCCCCCCC)CCCCCCCC)CCCCC(=O)OC(C)C(C)OC(=O)CCCCN(CCCCCCCC(=O)OCCCCCCCCC)CCCCCCCC(=O)OC(CCCCCCCC)CCCCCCCC (stereo not drawn)"
  UNITS: "nm"
  VALUE_REPORTED: 111.5
- COMPOUND: "CCCCCCCCCOC(=O)CCCCCCCN(CCCCCCCC(=O)OC(CCCCCCCC)CCCCCCCC)CCCCC(=O)N(CC)CCN(CC)C(=O)CCCCN(CCCCCCCC(=O)OCCCCCCCCC)CCCCCCCC(=O)OC(CCCCCCCC)CCCCCCCC"
  UNITS: "nm"
  VALUE_REPORTED: 129.9
- COMPOUND: "CCCCCCCCCN(CCCCCCCCC)CCN(CCCCCCCCC)CC(=O)OC(C)CC(C)OC(=O)CN(CCCCCCCCC)CCCCCCCCC (stereo not drawn)"
  UNITS: "nm"
  VALUE_REPORTED: 70.1
- COMPOUND: "CCCCCCCCCOC(=O)CCCCCCCN(CCCCCCCC(=O)OC(CCCCCCCC)CCCCCCCC)CCCCC(=O)N(C)CCCN(C)C(=O)CCCCN(CCCCCCCC(=O)OCCCCCCCCC)CCCCCCCC(=O)OC(CCCCCCCC)CCCCCCCC"
  UNITS: "nm"
  VALUE_REPORTED: 97.7
- COMPOUND: "CCCCCCCCCN(CCCCCCCCC)CCN(CCCCCCCCC)CC(=O)OC(C)C(C)OC(=O)CN(CCCCCCCCC)CCCCCCCCC (stereo not drawn)"
  UNITS: "nm"
  VALUE_REPORTED: 78.0
- COMPOUND: "CCCCCCCCCOC(=O)CCCCCCCN(CCCCCCCC(=O)OC(CCCCCCCC)CCCCCCCC)CCCCC(=O)OC(C)CC(C)OC(=O)CCCCN(CCCCCCCC(=O)OCCCCCCCCC)CCCCCCCC(=O)OC(CCCCCCCC)CCCCCCCC (stereo not drawn)"
  UNITS: "nm"
  VALUE_REPORTED: 126.0
